METHOD DESCRIPTION: Volatility of compounds measured by thermogravimetric analysis (TGA)
Format: physicochemical
The following compounds are listed with their measured TGA Data (rate of weight loss, volatility) values.
Output spec: scalar in µg/min, unitless text.

Recorded TGA Data (rate of weight loss, volatility) of O=C(COc1ccc(Cl)cc1Cl)NOc1ccccc1 , please.
0.2

Recorded TGA Data (rate of weight loss, volatility) of O=C(COc1ccc(Cl)cc1Cl)Nc1ccon1 [Compound D2] , please.
0.2

Recorded TGA Data (rate of weight loss, volatility) of O=C(COc1ccc(Cl)cc1Cl)ONC(=O)C1CCCC1 , please.
1.83

---

The following compounds are listed with their measured pest or weed control at 280 g/ha values.
Tested on: Chenopodium album (CHEAL), common lambsquarters
METHOD DESCRIPTION: Postemergence herbicide evaluation, growth of Chenopodium album (CHEAL)
Type: in vivo
TEST PARAMETERS: Chenopodium album, post-emergence, 168 h, 280 g ae/ha, 7 DAA, percent reduction in plant size relative to untreated control; read-out: Ave. CHEAL

Cc1cc(OC(=O)COc2ccc(Cl)cc2Cl)n(C)n1    63%

Recorded pest or weed control at 280 g/ha of CN(NC(=O)COc1ccc(Cl)cc1Cl)C(=O)c1ccccc1 , please.
65%

Recorded pest or weed control at 280 g/ha of N/C(=N\OC(=O)COc1ccc(Cl)cc1Cl)c1ccc(/C(N)=N/OC(=O)COc2ccc(Cl)cc2Cl)cc1 , please.
15%

---

System: glyphosate resistant Conyza canadensis (L.) (ERICA), horseweed
METHOD DESCRIPTION: Postemergence herbicide evaluation, growth of Conyza canadensis (ERICA)
Assay type: in vivo
TEST PARAMETERS: Erigeron canadensis, post-emergence, 168 h, 280 g ae/ha, 7 DAA, percent reduction in plant size vs untreated control; read-out: Ave. ERICA
The following compounds are listed with their measured pest or weed control at 280 g/ha values.
Output spec: scalar in %, unitless text.

Recorded pest or weed control at 280 g/ha of O=C(COc1ccc(Cl)cc1Cl)ONC(=O)C1CCCC1 [Compound A20] , please.
75

Recorded pest or weed control at 280 g/ha of Cc1cc(NC(=O)COc2ccc(Cl)cc2Cl)n(C)n1 [Compound D14] , please.
82.5

Recorded pest or weed control at 280 g/ha of O=C(COc1ccc(Cl)cc1Cl)Nc1ccnc(Cl)c1 [Compound D13] , please.
80

Recorded pest or weed control at 280 g/ha of O=C(COc1ccc(Cl)cc1Cl)NOCc1ccc(Cl)cc1 [Compound D16] , please.
72.5

Recorded pest or weed control at 280 g/ha of O=C(COc1ccc(Cl)cc1Cl)Nc1ccccn1 [Compound D28] , please.
82.5

Recorded pest or weed control at 280 g/ha of O=C(COc1ccc(Cl)cc1Cl)Oc1cccnc1 [Compound E9] , please.
82.5

Recorded pest or weed control at 280 g/ha of Cc1nc2ccccc2n1C(=O)COc1ccc(Cl)cc1Cl [Compound D12] , please.
85

Recorded pest or weed control at 280 g/ha of O=C(COc1ccc(Cl)cc1Cl)NOCCc1ccccc1 [Compound D18] , please.
85

Recorded pest or weed control at 280 g/ha of O=C(COc1cc(Cl)cc(Cl)c1)OCCCOC(=O)COc1ccc(Cl)cc1Cl [Compound B7] , please.
82.5

Recorded pest or weed control at 280 g/ha of O=C(COc1ccc(Cl)cc1Cl)NOC1CCCCO1 (centres unmarked) [Compound D15] , please.
72.5

---

The following molecules are listed with their measured pest or weed control at 560 g/ha values.
Test system: Amaranthus rudis (AMATA), tall water hemp
METHOD DESCRIPTION: Postemergence herbicide evaluation, growth of Amaranthus rudis (AMATA)
Type: in vivo
TEST PARAMETERS: Amaranthus tuberculatus, post-emergence, 504 h, read-out: Ave. AMATA

The following molecules have reported results that may help.
O=C(COc1ccc(Cl)cc1Cl)OCCCCCOC(=O)COc1ccc(Cl)cc1Cl    100%
O=C(COc1ccc(Cl)cc1Cl)OCCCOC(=O)COc1ccc(Cl)cc1Cl    55%

Recorded pest or weed control at 560 g/ha of O=C(COc1ccc(Cl)cc1Cl)Oc1ccc(Cl)cc1 , please.
86%

---

Test system: Ambrosia artemisiifolia (AMBEL), common ragweed
METHOD DESCRIPTION: Postemergence herbicide evaluation, growth of Ambrosia artemisiifolia (AMBEL)
Format: in vivo
TEST PARAMETERS: Ambrosia artemisiifolia, post-emergence, 168 h, 280 g ae/ha, 7 DAA; read-out: AVE. AMBEL, percent reduction in plant size relative to the untreated control
The following compounds are listed with their measured pest or weed control at 280 g/ha values.
Output spec: scalar in %, unitless text.

The following compounds have reported results that may help.
O=C(COc1ccc(Cl)cc1Cl)Oc1cccnn1 [Compound E2]    63
O=C(COc1ccc(Cl)cc1Cl)Nc1cc[nH]n1 [Compound D21]    75

Now for another entry.
Recorded pest or weed control at 280 g/ha of COc1ncc(OC(=O)COc2ccc(Cl)cc2Cl)cn1 [Compound E12] , please.
75

---

Tested on: Ambrosia artemisiifolia (AMBEL), common ragweed
METHOD DESCRIPTION: Postemergence herbicide evaluation, growth of Ambrosia artemisiifolia (AMBEL)
Format: in vivo
TEST PARAMETERS: Ambrosia artemisiifolia, post-emergence, 168 h, 560 g ae/ha, 7 DAA, percent reduction in plant size relative to untreated control; read-out: AVE. AMBEL
OBSERVED PROPERTY: pest or weed control at 560 g/ha (%)
Output spec: scalar in %, unitless text.

Recorded pest or weed control at 560 g/ha of CS/C(C)=N\OC(=O)COc1ccc(Cl)cc1Cl [Compound A10] , please.
75

Recorded pest or weed control at 560 g/ha of CC(=O)/C(C)=N/OC(=O)COc1ccc(Cl)cc1Cl [Compound A8] , please.
80

---

Tested on: Chenopodium album (CHEAL), common lambsquarters
METHOD DESCRIPTION: Postemergence herbicide evaluation, growth of Chenopodium album (CHEAL)
Format: in vivo
TEST PARAMETERS: Chenopodium album, post-emergence, 504 h, 560 g ae/ha, 21 DAA, percent reduction in plant size vs untreated control; read-out: Ave. CHEAL
The following molecules are listed with their measured pest or weed control at 560 g/ha values.
Output spec: scalar in %, unitless text.

Cc1nc2ccccc2n1C(=O)COc1ccc(Cl)cc1Cl [Compound D12]    96
O=C(COc1ccc(Cl)cc1Cl)NOCc1c(F)cccc1Cl [Compound D17]    100
CONC(=O)COc1ccc(Cl)cc1Cl [Compound D19]    98
O=C(COc1ccc(Cl)cc1Cl)Nc1ccccn1 [Compound D28]    96.5
O=C(COc1ccc(Cl)cc1Cl)NOC1CCCCO1 (stereo not shown) [Compound D15]    97.5
O=C(COc1ccc(Cl)cc1Cl)Nc1cccnc1 [Compound D27]    97.5

Recorded pest or weed control at 560 g/ha of C=CCONC(=O)COc1ccc(Cl)cc1Cl [Compound D33] , please.
99

Recorded pest or weed control at 560 g/ha of C/C(=N\OC(=O)COc1ccc(Cl)cc1Cl)C(=O)c1ccccc1 [Compound A22] , please.
97.5

Recorded pest or weed control at 560 g/ha of O=C(COc1ccc(Cl)cc1Cl)NOCc1ccc(Cl)cc1 [Compound D16] , please.
100

---

System: weeds ABUTH, AMATA, AMBEL, CHEAL, ERICA
METHOD DESCRIPTION: Postemergence herbicide evaluation, overall average % weed control (ABUTH, AMATA, AMBEL, CHEAL, ERICA)
Format: in vivo
TEST PARAMETERS: post-emergence, 168 h, 560 g ae/ha, 7 DAA; read-out: Overall Ave % Weed Control
OBSERVED PROPERTY: pest or weed control at 560 g/ha (%)
Output spec: scalar in %, unitless text.

The following compounds have reported results that may help.
N/C(=N\OC(=O)COc1ccc(Cl)cc1Cl)c1ccco1    61
O=C(COc1ccc(Cl)cc1Cl)Oc1ncc(Cl)cn1    81.5

Recorded pest or weed control at 560 g/ha of O=C(COc1ccc(Cl)cc1Cl)O/N=C/c1ccccn1 , please.
76.5

Recorded pest or weed control at 560 g/ha of CC(C)ONC(=O)COc1ccc(Cl)cc1Cl , please.
82

Recorded pest or weed control at 560 g/ha of C/C(=N\OC(=O)COc1ccc(Cl)cc1Cl)c1ccccc1 , please.
77

---

Test system: Ambrosia artemisiifolia (AMBEL), common ragweed
METHOD DESCRIPTION: Postemergence herbicide evaluation, growth of Ambrosia artemisiifolia (AMBEL)
Format: in vivo
TEST PARAMETERS: Ambrosia artemisiifolia, post-emergence, 168 h, 280 g ae/ha, 7 DAA, percent reduction in plant size relative to untreated control; read-out: AVE. AMBEL
Tick criterion met if pest or weed control at 280 g/ha is 60% or greater. Tick criterion not met if pest or weed control at 280 g/ha is less than 60%.

N/C(Cc1ccccc1)=N\OC(=O)COc1ccc(Cl)cc1Cl [Compound A17]    criterion met
O=C(Cc1ccccc1)NOC(=O)COc1ccc(Cl)cc1Cl [Compound A13]    criterion met
N/C(=N\OC(=O)COc1ccc(Cl)cc1Cl)c1ccc(/C(N)=N/OC(=O)COc2ccc(Cl)cc2Cl)cc1 [Compound B5]    criterion not met
Cc1cc(OC(=O)COc2ccc(Cl)cc2Cl)n(C)n1 [Compound E6]    criterion met
CC(=O)/C(C)=N/OC(=O)COc1ccc(Cl)cc1Cl [Compound A8]    criterion met

Does pest or weed control at 280 g/ha meet or surpass 60% for O=C(COc1ccc(Cl)cc1Cl)O/N=C/c1ccc(/C=N/OC(=O)COc2ccc(Cl)cc2Cl)cc1 [Compound B3] ?
criterion not met

Does pest or weed control at 280 g/ha meet or surpass 60% for O=C(COc1ccc(Cl)cc1Cl)NOCc1ccccc1 [Compound D8] ?
criterion met

Does pest or weed control at 280 g/ha meet or surpass 60% for CN(OC(=O)COc1ccc(Cl)cc1Cl)C(=O)c1ccccc1 [Compound A16] ?
criterion met
